molecular target: human TLR7 (Homo sapiens (Human), UniProt Q9NYK1); experiment: TLR7 inhibition reporter assay (HEK-Blue, SEAP); conditions: HEK-Blue cells overexpressing human TLR7, gardiquimod 7.5 μM stimulation
Sequence (Q9NYK1 27-1049): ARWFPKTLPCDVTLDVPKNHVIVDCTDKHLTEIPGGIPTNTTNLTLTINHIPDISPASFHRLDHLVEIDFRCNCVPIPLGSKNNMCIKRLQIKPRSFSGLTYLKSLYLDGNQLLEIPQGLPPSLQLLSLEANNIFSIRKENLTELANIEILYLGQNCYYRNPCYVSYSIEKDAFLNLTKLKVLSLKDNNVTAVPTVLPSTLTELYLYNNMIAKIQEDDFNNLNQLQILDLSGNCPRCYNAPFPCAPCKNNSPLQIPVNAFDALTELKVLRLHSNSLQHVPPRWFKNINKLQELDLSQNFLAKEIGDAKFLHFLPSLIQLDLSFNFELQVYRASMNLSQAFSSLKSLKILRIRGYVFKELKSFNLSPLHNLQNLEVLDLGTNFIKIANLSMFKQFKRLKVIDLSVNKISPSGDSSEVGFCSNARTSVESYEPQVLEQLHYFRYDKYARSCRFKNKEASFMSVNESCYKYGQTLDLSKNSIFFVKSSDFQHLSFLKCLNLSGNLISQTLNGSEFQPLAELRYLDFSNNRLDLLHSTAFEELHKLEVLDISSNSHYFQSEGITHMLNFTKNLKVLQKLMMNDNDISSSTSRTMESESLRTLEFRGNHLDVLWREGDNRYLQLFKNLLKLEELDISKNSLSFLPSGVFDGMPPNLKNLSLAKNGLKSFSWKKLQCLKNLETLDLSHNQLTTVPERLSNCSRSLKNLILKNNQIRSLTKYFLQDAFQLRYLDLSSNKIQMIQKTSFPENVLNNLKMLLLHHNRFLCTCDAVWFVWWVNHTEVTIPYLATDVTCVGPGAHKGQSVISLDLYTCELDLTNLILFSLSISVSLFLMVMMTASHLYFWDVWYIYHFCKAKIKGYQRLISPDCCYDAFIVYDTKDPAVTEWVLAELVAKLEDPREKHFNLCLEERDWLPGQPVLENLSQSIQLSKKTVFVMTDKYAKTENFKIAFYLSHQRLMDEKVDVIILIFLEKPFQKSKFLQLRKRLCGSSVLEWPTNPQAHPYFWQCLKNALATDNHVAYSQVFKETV
assay-metric: pIC50
pIC50 is defined as minus the log10 of a concentration measured in mol/L.

Below are worked cases with known answers.
# compound, pIC50
records = [
    ("COc1ccc(-c2[nH]c3ccc(-c4ccc(CN5CCOCC5)cc4)cc3c2C(C)C)cc1OC", 6.36),
    ("Cc1cc(-c2[nH]c3ccc(-c4nnc(CN5CCN(C)CC5)o4)cc3c2C(C)C)ccn1", 7.19),
    ("COc1ccc(-c2[nH]c3ccc(-c4ccc(N5CCN(C6CCCC6)CC5)cc4)cc3c2C(C)C)cc1OC", 6.24),
    ("Cc1cc(-c2[nH]c3ccc(-c4nnc(C5CCN(CC(=O)N(C)C)CC5)[nH]4)cc3c2C(C)C)ccn1", 7.08),
    ("COc1ccc(-c2[nH]c3ccc(-c4cccc(C(=O)N5CCN(C6CCN(C)CC6)CC5)c4)cc3c2CC(F)(F)F)cc1OC", 6.39),
    ("Cc1cc(-c2[nH]c3ccc(-c4nnc([C@H]5CCCNC5)o4)cc3c2C(C)C)ccn1", 7.80),
]

**Query** Provide one value: measured pIC50 of CCc1c(-c2ccnc(C)c2)[nH]c2ccc(-c3noc(C4CCCNC4)n3)cc12 (centres unmarked)
**Result** 6.64

**Query** Provide one value: measured pIC50 of "Cc1cc(-c2[nH]c3ccc(-c4nnc(CCc5cccnc5)o4)cc3c2C(C)C)ccn1"
**Result** 6.54

**Query** Provide one value: measured pIC50 of "COc1ccc(-c2[nH]c3ccc(-c4nnc(C(=O)NCCN(C)C)o4)cc3c2C(C)C)cc1OC"
**Result** 7.52

**Query** Provide one value: measured pIC50 of "Cc1cc(-c2[nH]c3ccc(-c4nc(C(=O)NCCCN5CCN(C)CC5)co4)cc3c2C(C)C)cc(C)n1"
**Result** 7.92

**Query** Provide one value: measured pIC50 of "COc1ccc(-c2[nH]c3ccc(-c4ccc(OCCN5CCCC5)cc4)cc3c2C(C)C)cc1OC"
**Result** 7.47

----------
target: human TLR9 (Homo sapiens (Human)); test: TLR9 inhibition reporter assay (HEK-Blue, SEAP); conditions: HEK-Blue cells overexpressing human TLR9, ODN2006 5 nM stimulation
Known pIC50 of a selection of molecules
pIC50 is defined as minus the log10 of a concentration measured in mol/L.

Below are worked cases with known answers.
# molecule, pIC50
rows = [
    ("Cc1cc(-c2[nH]c3ccc(-c4cc5c(s4)CN(CC(=O)N(C)C)CC5)cc3c2C(C)C)cc(C)n1", 5.88),
    ("Cc1cc(-c2[nH]c3ccc(-c4ccc(N)nn4)cc3c2C(C)C)cc(C)n1", 5.67),
    ("CCc1c(-c2ccnc(C)c2)[nH]c2ccc(-c3noc(C4CNC4)n3)cc12", 5.98),
    ("COc1ccc(-c2[nH]c3ccc(-c4ccc(N5CCN[C@H](C)C5)cc4)cc3c2C(C)C)cc1OC", 5.33),
    ("CNCCNc1ccc(-c2ccc3[nH]c(-c4ccnc(C)c4)c(C(C)C)c3c2)cn1", 6.31),
    ("Cc1cc(-c2[nH]c3ccc(-c4nc(C(=O)NCC5CCNC5)co4)cc3c2C(C)C)cc(C)n1 (centres unmarked)", 5.96),
    ("Cc1cc(-c2[nH]c3ccc(-c4nnc(CCCN(C)C)o4)cc3c2C(C)C)cc(C)n1", 6.55),
    ("CNCCN1CCC(c2nnc(-c3ccc4[nH]c(-c5ccc(OC)c(OC)c5)c(C(C)C)c4c3)o2)CC1", 6.75),
]

Then this molecule:
**Query** Provide pIC50, tested on human TLR9 (Homo sapiens (Human)), for "Cc1cc(-c2[nH]c3ccc(-c4nc5c(s4)CN(C(=O)CN(C)C)CC5)cc3c2C(C)C)cc(C)n1" .
**Result** 6.82

----------
target: human TLR7 (Homo sapiens (Human), UniProt Q9NYK1); test: TLR7 inhibition reporter assay (HEK-Blue, SEAP); type: cell-based; settings: HEK-Blue cells overexpressing human TLR7, gardiquimod 7.5 μM stimulation
assay-metric: IC50

**Query** Provide one value: measured IC50 of Cc1cc(-c2[nH]c3ccc(-c4nnc(N)o4)cc3c2C(C)C)ccn1 [Example 174]
**Result** 53 nM

**Query** Provide one value: measured IC50 of FC(F)Cc1c(-c2ccnc3[nH]ncc23)[nH]c2ccc(-c3nnc([C@@H]4CCCNC4)o3)cc12 [Example 243]
**Result** 2280 nM

**Query** Provide one value: measured IC50 of Cc1cc(-c2[nH]c3ccc(-c4nnc(Cc5cccnc5)o4)cc3c2C(C)C)ccn1 [Example 74]
**Result** 132 nM

----------
target: human TLR9 (Homo sapiens (Human), UniProt Q9NR96); assay: TLR9 inhibition reporter assay (HEK-Blue, SEAP); conditions: HEK-Blue cells overexpressing human TLR9, ODN2006 5 nM stimulation
Sequence (Q9NR96 26-1032): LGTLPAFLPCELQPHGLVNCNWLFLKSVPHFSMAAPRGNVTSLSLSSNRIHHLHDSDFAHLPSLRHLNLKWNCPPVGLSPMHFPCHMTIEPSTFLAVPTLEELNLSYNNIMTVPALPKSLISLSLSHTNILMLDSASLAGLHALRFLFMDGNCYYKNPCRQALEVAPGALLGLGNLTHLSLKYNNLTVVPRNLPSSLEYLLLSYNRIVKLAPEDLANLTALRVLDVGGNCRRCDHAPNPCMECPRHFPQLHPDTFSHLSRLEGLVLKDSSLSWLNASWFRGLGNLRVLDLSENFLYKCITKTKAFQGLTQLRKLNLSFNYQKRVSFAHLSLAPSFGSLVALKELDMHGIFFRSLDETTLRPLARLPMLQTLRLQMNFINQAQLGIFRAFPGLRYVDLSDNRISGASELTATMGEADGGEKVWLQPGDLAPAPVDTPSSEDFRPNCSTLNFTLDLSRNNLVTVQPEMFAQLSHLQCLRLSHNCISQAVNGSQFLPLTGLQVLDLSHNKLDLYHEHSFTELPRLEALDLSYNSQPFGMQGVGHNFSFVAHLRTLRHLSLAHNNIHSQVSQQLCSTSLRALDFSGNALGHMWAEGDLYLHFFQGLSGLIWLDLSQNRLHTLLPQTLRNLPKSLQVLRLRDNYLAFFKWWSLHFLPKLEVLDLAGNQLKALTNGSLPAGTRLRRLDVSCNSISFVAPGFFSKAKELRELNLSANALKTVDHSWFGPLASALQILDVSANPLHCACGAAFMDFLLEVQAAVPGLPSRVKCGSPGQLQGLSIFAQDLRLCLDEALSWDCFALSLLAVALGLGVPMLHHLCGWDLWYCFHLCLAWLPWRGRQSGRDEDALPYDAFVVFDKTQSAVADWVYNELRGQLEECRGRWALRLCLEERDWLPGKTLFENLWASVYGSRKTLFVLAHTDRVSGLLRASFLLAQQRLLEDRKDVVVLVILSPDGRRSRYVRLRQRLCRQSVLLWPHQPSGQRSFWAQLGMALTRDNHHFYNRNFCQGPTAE
assay-metric: IC50

Below are worked cases with known answers.
# compound, IC50
data = [
    ("CC(C)c1c(-c2ccnc3[nH]ncc23)[nH]c2ccc(-c3cccc4cnccc34)cc12 [Example 470]", "> 50 µM"),
    ("Cc1cc(-c2[nH]c3ccc(-c4ccc(Cl)nc4)cc3c2C(C)C)ccn1 [Example 235]", "> 50 µM"),
]

**Query** Provide one value: measured IC50 of COc1ccc(-c2[nH]c3ccc(-c4ccnc(C(=O)N5CCNCC5)c4)cc3c2C(C)C)cc1OC [Example 14]
**Result** > 50 µM

----------
target: human TLR7 (Homo sapiens (Human), UniProt Q9NYK1); assay: TLR7 inhibition reporter assay (HEK-Blue, SEAP); settings: HEK-Blue cells overexpressing human TLR7, gardiquimod 7.5 μM stimulation
Known IC50 of a selection of compounds
Express your answer in nM, writing the number without its unit.

Below are worked cases with known answers.
# compound, result-number
measured = [
    ("CC(C)c1c(-c2ccc3nccn3c2)[nH]c2ccc(-c3nnc(C(=O)NCCN(C)C)o3)cc12", 22),
    ("Cc1cc(-c2[nH]c3ccc(-c4nnc([C@@H]5CSCN5)o4)cc3c2C(C)C)ccn1", 320),
    ("COc1ccc(-c2[nH]c3ccc(-c4cccc(C(=O)N5CCN(c6ccncc6)CC5)c4)cc3c2CC(F)(F)F)cc1OC", 287),
    ("Cc1cc(-c2[nH]c3ccc(-c4ccnc(N5CCNCC5)c4)cc3c2C(C)C)cc(C)n1", 71),
    ("COc1ccc(-c2[nH]c3ccc(-c4cccc(C(=O)N5CC6CNCC6C5)c4)cc3c2C(C)C)cc1OC (centres unmarked)", 108),
    ("COc1ccc(-c2[nH]c3ccc(-c4nnc(C(=O)N5CC[C@H](N(C)C)C5)o4)cc3c2C(C)C)cc1OC", 68),
    ("Cc1cc(-c2[nH]c3ccc(-c4ccc(N5CCN(CCO)CC5)nc4)cc3c2C(C)C)cc(C)n1", 8.3),
    ("Cc1cc(-c2[nH]c3ccc(-c4nnc(C5CCCN(C(C)C)C5)[nH]4)cc3c2C(C)C)cc(C)n1 (centres unmarked) [Example 340]", 4),
    ("COc1ccc(-c2[nH]c3ccc(-c4cccc(C(=O)N5CCCC5C)c4)cc3c2CC(F)(F)F)cc1OC (centres unmarked)", 2620),
    ("CCc1c(-c2ccc(OC)c(OC)c2)[nH]c2ccc(-c3nnc(C(N)=O)o3)cc12", 749),
]

**Query** Provide IC50, tested on human TLR7 (Homo sapiens (Human), UniProt Q9NYK1), for "CC(C)c1c(-c2ccnc3[nH]ncc23)[nH]c2ccc(-c3nnc([C@H]4CCCNC4)o3)cc12" .
**Result** 45

**Query** Provide IC50, tested on human TLR7 (Homo sapiens (Human), UniProt Q9NYK1), for Cc1cc(-c2[nH]c3ccc(-c4nc(C(=O)NCC5CCNC5)c(C)o4)cc3c2C(C)C)ccn1 (centres unmarked) .
**Result** 112

**Query** Provide IC50, tested on human TLR7 (Homo sapiens (Human), UniProt Q9NYK1), for "Cc1cc(-c2[nH]c3ccc(-c4csc(N5CCCCC5)n4)cc3c2C(C)C)cc(C)n1" .
**Result** 742

**Query** Provide IC50, tested on human TLR7 (Homo sapiens (Human), UniProt Q9NYK1), for "COc1ccc(-c2[nH]c3ccc(-c4cccc(C(=O)N5CCN(CC(=O)NC(C)C)CC5)c4)cc3c2CC(F)(F)F)cc1OC" .
**Result** 1990

**Query** Provide IC50, tested on human TLR7 (Homo sapiens (Human), UniProt Q9NYK1), for "CCc1c(-c2ccc(OC)c(OC)c2)[nH]c2ccc(-c3nnc(C(=O)NC4CCN(C(C)C)CC4)o3)cc12" .
**Result** 93

**Query** Provide IC50, tested on human TLR7 (Homo sapiens (Human), UniProt Q9NYK1), for "Cc1cc(-c2[nH]c3ccc(-c4nc(C5CCNCC5)c[nH]4)cc3c2C(C)C)ccn1" .
**Result** 175

**Query** Provide IC50, tested on human TLR7 (Homo sapiens (Human), UniProt Q9NYK1), for "COc1ccc(-c2[nH]c3ccc(-c4nnc(C5CCNCC5)[nH]4)cc3c2C(C)C)cc1OC" .
**Result** 182

**Query** Provide IC50, tested on human TLR7 (Homo sapiens (Human), UniProt Q9NYK1), for "Cc1cc(-c2[nH]c3ccc(-c4cnc(N)cn4)cc3c2C(C)C)ccn1" .
**Result** 17

**Query** Provide IC50, tested on human TLR7 (Homo sapiens (Human), UniProt Q9NYK1), for "Cc1cc(-c2[nH]c3ccc(-c4cc5c(s4)CN(C(C)C)CC5)cc3c2C(C)C)cc(C)n1" .
**Result** 11

**Query** Provide IC50, tested on human TLR7 (Homo sapiens (Human), UniProt Q9NYK1), for Cc1cc(-c2[nH]c3ccc(-c4ccc(NC(=O)C5CC(=O)N(C)C5)nc4)cc3c2C(C)C)ccn1 (centres unmarked) .
**Result** 14

**Query** Provide IC50, tested on human TLR7 (Homo sapiens (Human), UniProt Q9NYK1), for "Cc1cc(-c2[nH]c3ccc(-c4nnc(C(=O)NCCN(C)C)o4)cc3c2C(C)C)cc(C)n1" .
**Result** 6.6

**Query** Provide IC50, tested on human TLR7 (Homo sapiens (Human), UniProt Q9NYK1), for "COc1ccc(-c2[nH]c3ccc(-c4cccc(C(=O)N5CCC(O)CC5)c4)cc3c2CC(F)(F)F)cc1OC" .
**Result** 895

**Query** Provide IC50, tested on human TLR7 (Homo sapiens (Human), UniProt Q9NYK1), for "COc1ccc(-c2[nH]c3ccc(-c4ccnc(N5CCN(C6CCC6)CC5)c4)cc3c2C(C)C)cc1OC" .
**Result** 960

Taken from patent US11420958B2.
